Assay: Drug level in DIO-C57/B6 mouse serum in stress free condition at 30 mg/kg in food containing 0.5 mg/gram of high fat diet for 31 days measured on day 4 at 10 am
Assay type: ADME, organism-based
Set-up: dose 30 mg/kg
Conditions: po, read-out: Drug uptake
Reported Endpoint: concentration at 744 h
State the value with its unit after it.

Request: Consider the molecule C[C@@H]1CN(c2ccc(F)cc2C(F)(F)F)CCN1S(=O)(=O)c1ccc(C(N)=O)cc1Cl and give its measured concentration at 744 h.
Result: 1140 ng/mL

----------
Assay: in vitro
Conditions: human, microsomes
Reported Endpoint: half-life (min)
Numbers only, in min.

C[C@@H]1CN(c2ccc(F)cc2C(F)(F)F)CCN1S(=O)(=O)c1ccc(C#N)cc1 = 18
C[C@@H]1CN(c2ccc(F)cc2C(F)(F)F)CCN1S(=O)(=O)c1ccc(N2CCCCC2)cc1Cl = 21
COc1ccc(S(=O)(=O)N2CCN(c3ccc(F)cc3C(F)(F)F)C[C@H]2C)cc1 = 7

Now for a further molecule.
Request: Consider the molecule C[C@@H]1CN(c2ccc(F)cc2C(F)(F)F)CCN1S(=O)(=O)c1ccc(-n2cncn2)cc1Cl and give its measured half-life.
Result: 26

Every entry's value here was drawn from ChEMBL document CHEMBL1152435.
